protocol_notes: Clearance in iv dosed mouse
Assay type: ADME, organism-based
measurement_context: in vivo
As shown below, each of these molecules has a reported clearance value.

structure	clearance / mL/min/kg
O=C([C@@H]1COC(c2nc3cc(C(F)(F)F)cc([N+](=O)[O-])c3s2)=N1)N1CCCC1	49
COCCN1CCN(C(=O)c2nc3cc(C(F)(F)F)c(C)c([N+](=O)[O-])c3s2)CC1	146
Cc1c(C(F)(F)F)cc2nc(C3=N[C@H](C(=O)N4CCCC4)CO3)sc2c1[N+](=O)[O-]	83.5

* * *

protocol_notes: Volume of distribution at steady state in mouse
Type: ADME, organism-based
measurement_context: in vivo, read-out: Vdss
metric: Vd (L/kg)

structure	obs_value
O=C([C@@H]1COC(c2nc3cc(C(F)(F)F)cc([N+](=O)[O-])c3s2)=N1)N1CCCC1	1.44
COCCN1CCN(C(=O)c2nc3cc(C(F)(F)F)c(C)c([N+](=O)[O-])c3s2)CC1	24.5
Cc1c(C(F)(F)F)cc2nc(C3=N[C@H](C(=O)N4CCCC4)CO3)sc2c1[N+](=O)[O-]	3.5

* * *

As shown below, each of these compounds has a reported MIC value.
Test system: Mycobacterium tuberculosis
protocol_notes: Antimycobacterial activity against Mycobacterium tuberculosis H37Rv ATCC 27294 after 2 to 3 weeks by turbidity assay
Format: functional
metric: MIC (µg/mL)

structure	metric	obs_value
Cc1c(C(F)(F)F)cc2nc(C(=O)N3CCCCC3)sc2c1[N+](=O)[O-]	MIC	0.5
O=C(NCc1ccccn1)c1nc2cc(C(F)(F)F)cc([N+](=O)[O-])c2s1	MIC	0.12
O=C(NCc1ccccn1)c1sc2c([N+](=O)[O-])cc(C(F)(F)F)cc2[n+]1[O-]	MIC	0.01
COCCN1CCN(C(=O)c2nc3cc(C(F)(F)F)c(C)c([N+](=O)[O-])c3s2)CC1	MIC	2

* * *

As shown below, each of these compounds has a reported microsomal CLint value.
protocol_notes: Intrinsic clearance in mouse liver microsomes
Assay type: ADME
measurement_context: read-out: CLH

structure	unit_spec	measurement_qualifier	microsomal CLint
O=C(c1sc2c([N+](=O)[O-])cc(C(F)(F)F)cc2[n+]1[O-])N1CCCCC1	µL/min/mg	=	102
COCCN1CCN(C(=O)c2nc3cc(C(F)(F)F)cc([N+](=O)[O-])c3s2)CC1	µL/min/mg	=	25
Cc1c(C(F)(F)F)cc2nc(C3=N[C@H](C(=O)N4CCCC4)CO3)sc2c1[N+](=O)[O-]	µL/min/mg	=	37.9
COCCN1CCN(C(=O)c2nc3cc(C(F)(F)F)c(C)c([N+](=O)[O-])c3s2)CC1	µL/min/mg	<	4
O=C([C@@H]1COC(c2nc3cc(C(F)(F)F)cc([N+](=O)[O-])c3s2)=N1)N1CCCC1	µL/min/mg	=	76.6

* * *

Test system: Salmonella typhimurium
protocol_notes: Genotoxicity in Salmonella typhimurium TA100 at 5000 ug/plate by Ames test in absence of S9 fraction
Assay type: toxicity, organism-based
measurement_context: salmonella enterica subsp. enterica serovar typhimurium

structure	Activity
Cc1c(C(F)(F)F)cc2nc(C(=O)N3CCCCC3)sc2c1[N+](=O)[O-]	Non-toxic
Cc1c(C(F)(F)F)cc2nc(C3=N[C@H](C(=O)N4CCCC4)CO3)sc2c1[N+](=O)[O-]	Non-toxic
COCCN1CCN(C(=O)c2nc3cc(C(F)(F)F)c(C)c([N+](=O)[O-])c3s2)CC1	Non-toxic
Cc1c(C(F)(F)F)cc2nc(C3=NCCO3)sc2c1[N+](=O)[O-]	Non-toxic
